Please provide measured log10 of IC50 for the entries that follow.
Target: EGFR (D770_N771insNPG) (Homo sapiens (Human), UniProt P00533, INS770NPG)
Sequence (P00533 other isoform, or with tags, fused parts or gaps del 1-668/ins NPG behind 770 limits assumed): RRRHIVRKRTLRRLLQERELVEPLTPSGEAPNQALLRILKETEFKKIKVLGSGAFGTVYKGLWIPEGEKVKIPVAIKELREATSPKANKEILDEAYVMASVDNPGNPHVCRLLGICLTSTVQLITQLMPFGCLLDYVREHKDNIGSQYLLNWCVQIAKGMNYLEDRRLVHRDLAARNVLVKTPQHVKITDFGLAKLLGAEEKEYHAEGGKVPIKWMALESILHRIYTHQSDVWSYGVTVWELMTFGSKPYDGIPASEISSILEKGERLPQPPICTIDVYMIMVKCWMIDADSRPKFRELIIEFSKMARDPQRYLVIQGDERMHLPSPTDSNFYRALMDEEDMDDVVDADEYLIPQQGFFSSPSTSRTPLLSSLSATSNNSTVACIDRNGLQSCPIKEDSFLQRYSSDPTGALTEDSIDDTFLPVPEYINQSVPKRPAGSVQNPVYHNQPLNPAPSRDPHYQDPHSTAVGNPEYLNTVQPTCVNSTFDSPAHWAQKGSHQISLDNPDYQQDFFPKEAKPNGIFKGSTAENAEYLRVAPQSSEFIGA
Test: HotSpot radiometric kinase assay, EGFR (D770_N771insNPG)
Conditions: 10 μM ATP, read-out: EGFR (Δ770_N771insNPG) IC50
On a log10 scale: recorded IC50, unit nM.

log10 of IC50 for Cc1nn([C@H]2CN(C)C[C@@H]2O)c2c1/C=C/c1n[nH]c3ccc(cc13)-c1cnn(C)c1OCCCO2 (racemic) ?
1.93

Cool, now Cc1nn(C)c2c1/C=C/c1n[nH]c3ccc(cc13)-c1cnn(C)c1O[C@H]1CCCN(C2)C1
1.92

Also Cc1nn(C)c2c1/C=C/c1n[nH]c3ccc(cc13)-c1cnn(C)c1O[C@@H](C)CN(C)[C@@H]2C (single isomer, unassigned) ?
1.39

Next entry: C[C@H]1CN(C)Cc2cnn(C)c2/C=C/c2n[nH]c3ccc(cc23)-c2cnn(C)c2O1
2.86

Please give the result for CCOc1nn(CCO)c2c1/C=C/c1n[nH]c3ccc(cc13)-c1cnn(C)c1O[C@H](C)CN(C(C)=O)C2 too.
2.03

Same question for CCc1nn(C)c2c1/C=C/c1n[nH]c3ccc(cc13)-c1cnn(C)c1O[C@@H](C)CCO2 please.
2.33

One more compound: C[C@@H](C#N)Oc1nn(CCO)c2c1/C=C/c1n[nH]c3cc(F)c(cc13)-c1cnn(C)c1O[C@@H](C)CN(C)C2
2.01

Now this one: C[C@H]1CN(C)Cc2c(c(OC3CCNCC3)nn2C)/C=C/c2n[nH]c3ccc(cc23)-c2cnn(C)c2O1
2.52

Same read-out for Cn1ncc2c1OCCN1CC[C@H](C1)Oc1ccccc1/C=C/c1n[nH]c3ccc-2cc13 ?
2.52

Queued: Cc1c2c(nn1CCO)OCCOC(C)c1c(cnn1C)-c1ccc3[nH]nc(c3c1)/C=C/2 (centres unmarked)
2.98

And the next one, Cc1nn(C)c2c1/C=C/c1n[nH]c3ccc(cc13)-c1cnn(C)c1O[C@@H](C)CN(C)C2 ?
2.00

Likewise for CCn1ncc2c1O[C@@H](C)CN(C)Cc1c(c(OC(C)C)nn1CCO)/C=C/c1n[nH]c3ccc-2cc13 ?
1.56
